Provenance of the data: patent US20210284638A1

# study.system: Recombinant human integrin αVβ5 (Homo sapiens, UniProt P06756+P18084)
# Sequence (P06756 31-992 limits assumed): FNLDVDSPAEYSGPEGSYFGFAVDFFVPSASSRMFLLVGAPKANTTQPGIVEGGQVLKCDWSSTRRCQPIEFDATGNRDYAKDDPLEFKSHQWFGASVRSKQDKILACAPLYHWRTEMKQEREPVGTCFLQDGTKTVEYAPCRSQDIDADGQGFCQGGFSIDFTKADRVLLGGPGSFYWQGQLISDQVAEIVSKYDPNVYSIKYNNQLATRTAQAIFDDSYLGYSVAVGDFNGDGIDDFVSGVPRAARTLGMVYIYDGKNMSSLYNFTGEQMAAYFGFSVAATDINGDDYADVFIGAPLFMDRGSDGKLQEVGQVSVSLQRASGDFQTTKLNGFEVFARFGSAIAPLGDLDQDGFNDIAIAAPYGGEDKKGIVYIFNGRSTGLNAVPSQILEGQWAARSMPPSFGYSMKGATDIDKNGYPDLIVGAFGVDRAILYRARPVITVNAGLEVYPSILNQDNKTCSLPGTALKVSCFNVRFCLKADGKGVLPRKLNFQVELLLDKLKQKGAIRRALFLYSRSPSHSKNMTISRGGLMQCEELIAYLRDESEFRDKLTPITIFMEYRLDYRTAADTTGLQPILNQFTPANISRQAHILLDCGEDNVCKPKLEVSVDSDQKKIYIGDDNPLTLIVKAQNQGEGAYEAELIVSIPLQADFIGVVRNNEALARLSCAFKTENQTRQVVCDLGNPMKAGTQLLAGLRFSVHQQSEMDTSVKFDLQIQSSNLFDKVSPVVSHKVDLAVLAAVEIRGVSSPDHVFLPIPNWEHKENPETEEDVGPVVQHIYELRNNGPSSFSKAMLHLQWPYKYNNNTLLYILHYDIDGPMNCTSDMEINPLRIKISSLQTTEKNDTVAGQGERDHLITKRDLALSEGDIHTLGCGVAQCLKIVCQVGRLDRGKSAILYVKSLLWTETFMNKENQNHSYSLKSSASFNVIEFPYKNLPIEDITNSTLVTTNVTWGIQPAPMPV
# Sequence (P18084 24-719 limits assumed): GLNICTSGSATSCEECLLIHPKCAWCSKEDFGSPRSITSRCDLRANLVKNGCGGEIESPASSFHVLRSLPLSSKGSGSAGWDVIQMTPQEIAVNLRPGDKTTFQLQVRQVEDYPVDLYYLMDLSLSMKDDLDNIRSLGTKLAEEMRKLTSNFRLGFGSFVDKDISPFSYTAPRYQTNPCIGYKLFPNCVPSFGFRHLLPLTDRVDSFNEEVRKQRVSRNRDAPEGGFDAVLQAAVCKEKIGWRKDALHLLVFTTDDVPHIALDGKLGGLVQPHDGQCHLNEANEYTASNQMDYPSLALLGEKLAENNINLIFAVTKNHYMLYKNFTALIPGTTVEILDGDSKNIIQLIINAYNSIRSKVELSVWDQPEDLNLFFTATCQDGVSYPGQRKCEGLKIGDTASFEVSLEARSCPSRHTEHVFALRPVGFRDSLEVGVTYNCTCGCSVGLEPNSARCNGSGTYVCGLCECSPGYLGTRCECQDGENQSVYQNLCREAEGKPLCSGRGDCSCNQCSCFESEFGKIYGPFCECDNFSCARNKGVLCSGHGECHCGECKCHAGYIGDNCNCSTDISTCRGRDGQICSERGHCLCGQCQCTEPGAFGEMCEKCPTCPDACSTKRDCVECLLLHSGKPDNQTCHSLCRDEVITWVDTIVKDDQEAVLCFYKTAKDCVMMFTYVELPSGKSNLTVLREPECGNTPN
# assay: Solid Phase Receptor Assay (SPRA) for αVβ5 function
# run.parameters: plate-bound human vitronectin
Provide the recorded pIC50 for the entries that follow.
Give bare numbers, as −log10 of the molar value.

Example results:
CC(C)(C)c1ccc(Br)c(C(CC(=O)O)Cc2csc(CCCc3ccc4c(n3)NCCC4)n2)c1 (stereo not drawn) [Example 34] :: 6.44
COCC1(c2cc(C(CC(=O)O)Cc3csc(CCCc4ccc5c(n4)NCCC5)n3)cc(C(C)(C)C)c2)CCOCC1 (stereo not drawn) [Example 32] :: 6.62

**Query** Look up pIC50: COCC1(c2ccc(OC)c([C@H](CC(=O)O)Cc3cc(OCCc4ccc5c(n4)NCCC5)n(C)n3)c2)CCOCC1 [Example 48]
**Result** 6.11
